Just for reference, patent US20260274955A1 is where these values come from.

Anti-CD28 Fab (SEQ ID NOs: 202, 203) signal by entry:
- targetOrSystem: T1, anti-CD28 Fab (SEQ ID NOs: 202, 203)
- T1 construct: biotinylated and captured on neutravidin coated plates in the phage ELISA
- T1 sequence (VH, as listed by the source, chain 1 of 2): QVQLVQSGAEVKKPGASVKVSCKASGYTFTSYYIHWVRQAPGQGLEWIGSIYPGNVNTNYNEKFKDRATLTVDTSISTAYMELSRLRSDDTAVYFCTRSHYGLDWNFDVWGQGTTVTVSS
- T1 sequence (VL, as listed by the source, chain 2 of 2): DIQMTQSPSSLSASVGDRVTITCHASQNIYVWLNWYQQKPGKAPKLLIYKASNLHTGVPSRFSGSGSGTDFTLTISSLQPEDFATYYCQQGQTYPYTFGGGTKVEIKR
- assayProtocol: phage binding ELISA; biotinylated Fab on neutravidin plate;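 also: clonal phage supernatants added to Fab wells pretreated with CD28 antigen or with blocking buffer only, bound phage read out via HRP-linked anti-M13 antibody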
Give your answer as a number; write no unit.

Example cases with answers are listed next.
# binder, result
measured = [
    ("YCDGHLAEYMVKCL [Phage-375]", 1.79),
    ("YCDGHSWEYMEKCL [Phage-441]", 1.7),
]

// query Identify measured Anti-CD28 Fab (SEQ ID NOs: 202, 203) signal associated with YCDGHSAEYMEKCI [Phage-356]
// result 1.83

// query Identify measured Anti-CD28 Fab (SEQ ID NOs: 202, 203) signal associated with YCSGHLPEYMGKCL [Phage-417]
// result 1.73

// query Identify measured Anti-CD28 Fab (SEQ ID NOs: 202, 203) signal associated with YCDGHLDEYMEKCL [Phage-386]
// result 1.76

// query Identify measured Anti-CD28 Fab (SEQ ID NOs: 202, 203) signal associated with YCEGHSPMYMQKCM [Phage-355]
// result 1.83

// query Identify measured Anti-CD28 Fab (SEQ ID NOs: 202, 203) signal associated with YCQGHLPVYMEKCL [Phage-427]
// result 1.72
